# System: NCI-H596
# measurement_notes: relative viability (nuclei count vs DMSO), 5 days (fraction); higher = more cells survive
# condition_summary: first compound 2 µM
# relative viability per record follows
value_kind: relative viability

| molecule | target_or_test_system | value_kind | recorded_number |
| --- | --- | --- | --- |
| CN1CCN(CCOc2cc(OC3CCOCC3)c3c(Nc4c(Cl)ccc5c4OCO5)ncnc3c2)CC1 [Saracatinib] + Cc1nc(NC(=O)N2CCC[C@H]2C(N)=O)sc1-c1ccnc(C(C)(C)C(F)(F)F)c1 [Alpelisib] (partner 2 µM) | NCI-H596 | relative viability | 0.403 |
| CN1CCN(CCOc2cc(OC3CCOCC3)c3c(Nc4c(Cl)ccc5c4OCO5)ncnc3c2)CC1 [Saracatinib] + Cc1cc(Nc2cc(N3CCN(C)CC3)nc(Sc3ccc(NC(=O)C4CC4)cc3)n2)n[nH]1 [Tozasertib] (partner 0.1 µM) | NCI-H596 | relative viability | 0.708 |
| CN1CCN(CCOc2cc(OC3CCOCC3)c3c(Nc4c(Cl)ccc5c4OCO5)ncnc3c2)CC1 [Saracatinib] + NC(=O)Nc1cc(-c2cccc(F)c2)sc1C(=O)N[C@H]1CCCNC1 [AZD7762] (partner 0.2 µM) | NCI-H596 | relative viability | 0.852 |
| CN1CCN(CCOc2cc(OC3CCOCC3)c3c(Nc4c(Cl)ccc5c4OCO5)ncnc3c2)CC1 [Saracatinib] + Cc1nc(Nc2ncc(C(=O)Nc3c(C)cccc3Cl)s2)cc(N2CCN(CCO)CC2)n1 [Dasatinib] (partner 0.075 µM) | NCI-H596 | relative viability | 0.57 |
| CN1CCN(CCOc2cc(OC3CCOCC3)c3c(Nc4c(Cl)ccc5c4OCO5)ncnc3c2)CC1 [Saracatinib] + Nc1ncn([C@H]2C[C@H](O)[C@@H](CO)O2)c(=O)n1 [Decitabine] (partner 2 µM) | NCI-H596 | relative viability | 0.821 |
| Cc1csc(=NC2CCCCC2)n1/N=C/c1ccc(O)c(O)c1O [MIM1] + Nc1ncn([C@H]2C[C@H](O)[C@@H](CO)O2)c(=O)n1 [Decitabine] (partner 2 µM) | NCI-H596 | relative viability | 0.831 |
| CN1CCN(CCOc2cc(OC3CCOCC3)c3c(Nc4c(Cl)ccc5c4OCO5)ncnc3c2)CC1 [Saracatinib] + Nc1nc2[nH]cc(CCc3ccc(C(=O)N[C@@H](CCC(=O)O)C(=O)O)cc3)c2c(=O)[nH]1 [Pemetrexed] (partner 0.2 µM) | NCI-H596 | relative viability | 0.479 |
| Cc1csc(=NC2CCCCC2)n1/N=C/c1ccc(O)c(O)c1O [MIM1] + CC(C)C[C@H](NC(=O)[C@H](Cc1ccccc1)NC(=O)c1cnccn1)B(O)O [Bortezomib] (partner 0.002 µM) | NCI-H596 | relative viability | 0.988 |
| Cc1csc(=NC2CCCCC2)n1/N=C/c1ccc(O)c(O)c1O [MIM1] + N=C(N)NC(=N)NCCc1ccccc1 [Phenformin] (partner 250 µM) | NCI-H596 | relative viability | 0.733 |
| Cc1csc(=NC2CCCCC2)n1/N=C/c1ccc(O)c(O)c1O [MIM1] + COc1cc2c(Oc3ccc(NC(=O)C4(C(=O)Nc5ccc(F)cc5)CC4)cc3F)ccnc2cc1OCCCN1CCOCC1 [Foretinib] (partner 0.25 µM) | NCI-H596 | relative viability | 0.858 |
| Cc1csc(=NC2CCCCC2)n1/N=C/c1ccc(O)c(O)c1O [MIM1] + O=C(CCCCCCC(=O)Nc1ccccc1)NO [Vorinostat] (partner 1 µM) | NCI-H596 | relative viability | 0.561 |
